Molecular target: TYRO3 (Homo sapiens)
Sequence (Q06418 41-890): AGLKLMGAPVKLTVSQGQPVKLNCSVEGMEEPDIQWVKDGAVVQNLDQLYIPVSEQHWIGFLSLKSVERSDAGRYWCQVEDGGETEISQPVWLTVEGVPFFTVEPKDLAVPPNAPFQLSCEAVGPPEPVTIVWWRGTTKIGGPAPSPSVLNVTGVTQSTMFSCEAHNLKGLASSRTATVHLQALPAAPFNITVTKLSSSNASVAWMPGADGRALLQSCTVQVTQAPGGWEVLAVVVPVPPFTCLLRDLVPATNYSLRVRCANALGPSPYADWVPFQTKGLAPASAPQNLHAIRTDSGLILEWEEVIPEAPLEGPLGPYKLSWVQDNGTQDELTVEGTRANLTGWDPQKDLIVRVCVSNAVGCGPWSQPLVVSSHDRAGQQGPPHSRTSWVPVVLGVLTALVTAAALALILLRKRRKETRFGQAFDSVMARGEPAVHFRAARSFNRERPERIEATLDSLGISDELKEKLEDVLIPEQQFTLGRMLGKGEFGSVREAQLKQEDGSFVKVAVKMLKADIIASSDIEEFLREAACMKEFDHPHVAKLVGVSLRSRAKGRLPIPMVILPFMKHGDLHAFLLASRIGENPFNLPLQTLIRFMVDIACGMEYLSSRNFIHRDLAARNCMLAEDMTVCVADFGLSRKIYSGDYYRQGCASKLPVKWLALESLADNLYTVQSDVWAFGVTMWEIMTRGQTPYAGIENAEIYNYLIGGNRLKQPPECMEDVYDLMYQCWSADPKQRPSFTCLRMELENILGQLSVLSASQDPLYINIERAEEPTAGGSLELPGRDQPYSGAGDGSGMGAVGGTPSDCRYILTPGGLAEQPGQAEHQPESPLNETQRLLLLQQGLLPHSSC
Assay: Kinase assay at Km ATP (Eurofins Discovery), Tyro3
Type: biochemical
endpoint-label: inhibition at 1 µM (%)

[[record]]
compound = "COc1ccc(-n2ccc3cnc(N4CCN(C)CC4)nc32)cc1 [Compound 5]"
endpoint_label = "inhibition at 1 µM"
reported_result = 0


a: COc1ccc(-n2ccc3cnc(Nc4cc(OC)cc(N5CCCC(N6CCCC6)C5)c4)nc32)cc1 (centres unmarked) [Compound 29]
b: COc1ccc(-n2ccc3cnc(Nc4cc(OC)cc(N5CCN(C)CC5)c4)nc32)cc1 [Compound 25]
c: COc1cc(Nc2ncc3ccn(-c4nccs4)c3n2)cc(N2CCC(N3CCCC3)CC2)c1 [Compound 35]
query: Put the entries in order of inhibition at 1 µM, starting with the largest number. List the labels according to the requested ordering.
result: b, a, c
(b: 86%, a: 49%, c: 16%)

a: COc1ccc(-n2ccc3cnc(Nc4cc(OC)cc(N5CCC(N6CCCC6)CC5)c4)nc32)cc1 [Compound 27]
b: COc1ccc(-n2ccc3cnc(Nc4cc(OC)cc(N5CCC(C)(N6CCCC6)CC5)c4)nc32)cc1 [Compound 28]
query: Compare inhibition at 1 µM: is it lower for a or for b ? The response must carry the label of the picked entry.
result: a

---

Biological target: UniProt:Q12866
Test: Kinase assay at Km ATP (Eurofins Discovery), Mer
Type: biochemical
Conditions: Table 2; Km ATP; read-out: IC50 (nM) MER
endpoint-label: IC50 (nM)

For orientation, consider the following solved cases.
[[record]]
molecule = "COc1ccc(-n2ccc3cnc(Nc4ccc(NC5CCN(C)CC5)c(OC)c4)nc32)cc1 [Compound 17]"
target_of_assay = "UniProt:Q12866"
reported_result = 10

[[record]]
molecule = "COc1ccc(-n2ccc3cnc(Nc4cc(OC)cc(N5CCCC(N6CCCC6)C5)c4)nc32)cc1 (stereo not shown) [Compound 29]"
target_of_assay = "UniProt:Q12866"
reported_result = 31

[[record]]
molecule = "COc1ccc(-n2ccc3cnc(Nc4cc(OC)cc(N5CCN(C)CC5)c4)nc32)cc1 [Compound 25]"
target_of_assay = "UniProt:Q12866"
reported_result = 2


a: COc1ccc(-n2ccc3cnc(Nc4ccc(N5CCN(C)CC5)c(OC)c4)nc32)cc1 [Compound 16]
b: COc1ccc(-n2ccc3cnc(Nc4cc(OC)cc(N5CCN(C6COC6)CC5)c4)nc32)cc1 [Compound 30]
c: COc1ccc(-n2ccc3cnc(Nc4cc(OC)cc(N5CCC(C)(N6CCCC6)CC5)c4)nc32)cc1 [Compound 28]
d: COc1ccc(-n2ccc3cnc(Nc4cc(OC)cc(N5CCC(N6CCCC6)CC5)c4)nc32)cc1 [Compound 27]
query: Rank the 4 molecules: largest IC50 first, smallest last. Please respond with the labels ordered as the question requires.
result: b, a, c, d

a: COc1ccc(-n2ccc3cnc(Nc4cc(CN5CCN(C)CC5)cc(OC)c4)nc32)cc1 [Compound 26]
b: COc1ccc(-n2ccc3cnc(Nc4ccc(N5CCC(N(C)C)C5)c(OC)c4)nc32)cc1 (stereo not shown) [Compound 18]
query: Sort a and b by IC50 descending and give the first. Reply briefly: the label of your chosen item.
result: b

---

Target: AXL (Homo sapiens, UniProt P30530)
Assay: Kinase assay at Km ATP (Eurofins Discovery), Axl
Format: biochemical
Conditions: Table 2; Km ATP
endpoint-label: IC50 (nM)

# annotated cases, reported IC50 shown
[[record]]
compound = "COc1ccc(-n2ccc3cnc(Nc4ccc(N5CCN(C)CC5)c(OC)c4)nc32)cc1"
unit_annotation = "nM"
reported_result = 104

[[record]]
compound = "COc1ccc(-n2ccc3cnc(Nc4ccc(NC5CCN(C)CC5)c(OC)c4)nc32)cc1"
unit_annotation = "nM"
reported_result = 199


a: COc1ccc(-n2ccc3cnc(Nc4ccc(N5CCC(N(C)C)C5)c(OC)c4)nc32)cc1 (stereo not shown)
b: COc1ccc(-n2ccc3cnc(Nc4cc(OC)cc(N5CCC(N6CCCC6)CC5)c4)nc32)cc1
query: Exercise: compare a and b ; which one has the greater IC50? API: response body contains the label of the selected item.
result: a
(a: 175 nM, b: 16 nM)

---

Target: TYRO3 (Homo sapiens)
Assay: Kinase assay at Km ATP (Eurofins Discovery), Tyro3
Type: biochemical
Method: All kinase assays were carried out at Km ATP by Eurofins Discovery's Kinase Screening and Profiling services (France).
endpoint-label: inhibition at 1 µM (%)

[[record]]
record_smiles = "COc1ccc(-n2ccc3cnc(Nc4ccc(N5CCN(C)CC5)c(OC)c4)nc32)cc1"
endpoint_label = "inhibition at 1 µM"
reported_result = 27


1: COc1cc(Nc2ncc3ccn(-c4ccc(OC(F)(F)F)cc4)c3n2)cc(N2CCC(N3CCCC3)CC2)c1
2: COc1ccc(-n2ccc3cnc(Nc4cc(OC)cc(N5CCC6(CCCC6)CC5)c4)nc32)cc1
3: COc1ccc(-n2ccc3cnc(Nc4cccc(-c5ccccc5)c4)nc32)cc1
query: Reorder the items by inhibition at 1 µM, least to greatest. A complete answer lists every label in the requested sequence.
result: 2, 3, 1

---

Target: AXL (Homo sapiens)
Sequence (P30530 26-894): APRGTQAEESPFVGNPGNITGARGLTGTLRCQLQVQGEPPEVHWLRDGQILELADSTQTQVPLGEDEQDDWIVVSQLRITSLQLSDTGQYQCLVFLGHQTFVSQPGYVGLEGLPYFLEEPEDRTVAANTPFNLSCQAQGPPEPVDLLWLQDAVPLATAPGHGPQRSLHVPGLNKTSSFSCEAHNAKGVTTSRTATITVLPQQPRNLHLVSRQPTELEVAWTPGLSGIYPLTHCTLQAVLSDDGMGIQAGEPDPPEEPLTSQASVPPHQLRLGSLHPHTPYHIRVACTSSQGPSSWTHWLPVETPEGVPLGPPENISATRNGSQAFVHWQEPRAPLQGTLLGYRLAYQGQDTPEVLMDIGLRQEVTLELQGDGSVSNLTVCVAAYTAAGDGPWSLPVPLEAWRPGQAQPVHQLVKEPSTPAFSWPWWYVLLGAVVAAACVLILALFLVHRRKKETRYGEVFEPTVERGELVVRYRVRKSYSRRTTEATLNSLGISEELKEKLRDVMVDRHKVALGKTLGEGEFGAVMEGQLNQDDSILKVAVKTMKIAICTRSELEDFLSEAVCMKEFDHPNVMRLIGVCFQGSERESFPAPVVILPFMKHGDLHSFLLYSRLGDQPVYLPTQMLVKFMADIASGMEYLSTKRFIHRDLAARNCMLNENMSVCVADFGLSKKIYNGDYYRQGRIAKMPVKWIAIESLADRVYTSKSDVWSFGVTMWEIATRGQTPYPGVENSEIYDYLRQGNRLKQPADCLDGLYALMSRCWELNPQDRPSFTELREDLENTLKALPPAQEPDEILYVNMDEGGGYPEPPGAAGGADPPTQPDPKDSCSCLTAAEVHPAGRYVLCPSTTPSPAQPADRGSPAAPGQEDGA
Assay: Kinase assay at Km ATP (Eurofins Discovery), Axl
Type: biochemical
Conditions: Table 2; Km ATP
endpoint-label: IC50 (nM)

[[record]]
record_smiles = "COc1ccc(-n2ccc3cnc(Nc4cc(OC)cc(N5CCN(C6COC6)CC5)c4)nc32)cc1"
unit_annotation = "nM"
reported_result = 212


I: COc1ccc(-n2ccc3cnc(Nc4cc(OC)cc(N5CCC6(CCCO6)CC5)c4)nc32)cc1
II: COc1ccc(-n2ccc3cnc(Nc4cc(OC)cc(N5CCN(C)CC5)c4)nc32)cc1
query: Which of the two items, I and II , has the greater recorded IC50? Your answer should be the label attached to the chosen record.
result: I

---

Biological target: MERTK (Homo sapiens, UniProt Q12866)
Sequence (Q12866 21-999): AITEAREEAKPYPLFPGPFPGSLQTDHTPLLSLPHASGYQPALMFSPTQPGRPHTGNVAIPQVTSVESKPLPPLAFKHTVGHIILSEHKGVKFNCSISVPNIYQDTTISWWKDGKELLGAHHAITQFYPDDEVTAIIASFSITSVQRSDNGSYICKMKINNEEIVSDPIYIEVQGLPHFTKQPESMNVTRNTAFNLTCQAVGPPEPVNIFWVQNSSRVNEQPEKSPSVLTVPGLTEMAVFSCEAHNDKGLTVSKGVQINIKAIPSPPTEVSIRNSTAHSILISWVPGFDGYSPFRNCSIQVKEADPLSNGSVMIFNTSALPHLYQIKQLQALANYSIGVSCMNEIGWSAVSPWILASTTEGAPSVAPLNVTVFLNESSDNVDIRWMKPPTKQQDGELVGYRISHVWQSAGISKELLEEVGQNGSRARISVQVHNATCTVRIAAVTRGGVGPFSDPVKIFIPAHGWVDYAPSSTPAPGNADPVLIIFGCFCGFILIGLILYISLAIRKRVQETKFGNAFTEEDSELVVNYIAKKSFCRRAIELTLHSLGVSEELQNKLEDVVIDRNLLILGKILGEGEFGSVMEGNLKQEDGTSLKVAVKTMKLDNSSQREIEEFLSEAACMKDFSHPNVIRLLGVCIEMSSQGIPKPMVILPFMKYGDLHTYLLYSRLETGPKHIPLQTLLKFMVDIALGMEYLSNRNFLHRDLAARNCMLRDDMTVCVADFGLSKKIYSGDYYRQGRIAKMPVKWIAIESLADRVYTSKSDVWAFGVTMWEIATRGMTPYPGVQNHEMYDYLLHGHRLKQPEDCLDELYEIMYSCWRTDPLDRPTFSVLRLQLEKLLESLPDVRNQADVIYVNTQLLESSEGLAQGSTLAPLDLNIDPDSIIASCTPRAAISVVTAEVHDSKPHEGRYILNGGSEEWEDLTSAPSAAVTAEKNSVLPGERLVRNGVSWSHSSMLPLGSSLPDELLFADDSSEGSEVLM
Assay: Kinase assay at Km ATP (Eurofins Discovery), Mer
Type: biochemical
Conditions: Table 1; Km ATP; mean values; read-out: IC50 (nM) MERTK
Protocol: All kinase assays were carried out at Km ATP by Eurofins Discovery's Kinase Screening and Profiling services (France).
endpoint-label: IC50 (nM)

1: COc1ccc(-n2ccc3cnc(Nc4ccccc4)nc32)cc1
2: COc1ccc(-n2ccc3cnc(Nc4cccc(OC)c4)nc32)cc1
query: Please state the entry with greater IC50 among 1 and 2 . State the label of the item chosen.
result: 1
(1: 95 nM, 2: 39 nM)

---

Target: AXL (Homo sapiens)
Assay: Kinase assay at Km ATP (Eurofins Discovery), Axl
Format: biochemical
Conditions: Table 2; Km ATP
endpoint-label: IC50 (nM)

[[record]]
compound = "COc1ccc(-n2ccc3cnc(Nc4cc(OC)cc(N5CCCC(N6CCCC6)C5)c4)nc32)cc1 (stereo not drawn)"
target_of_assay = "AXL (Homo sapiens)"
endpoint_label = "IC50"
reported_result = 31


a: COc1ccc(-n2ccc3cnc(Nc4cc(OC)cc(N5CCC(C)(N6CCCC6)CC5)c4)nc32)cc1
b: COc1ccc(-n2ccc3cnc(Nc4cc(CN5CCN(C)CC5)cc(OC)c4)nc32)cc1
query: Between the entries labelled a and b , which has a larger IC50 value on record? Refer to your chosen entry by its label in the reply.
result: a
